System: OVCAR-4 ovarian
Assay: NCI tumour cell line growth inhibition, 48 h
assay_metric: TGI

# molecule, measurement_target, TGI
measured = [
    ("Cc1ccc(S(=O)(=O)c2nc(-c3ccccc3)oc2S(C)=O)cc1 (stereo not given)", "OVCAR-4 ovarian", "3.65 µM"),
    ("COc1ccc(-c2nc(-c3nc4ccc(F)cc4[nH]3)c3ccccn23)cc1", "OVCAR-4 ovarian", "> 100 µM"),
    ("Cc1cc(OC(=O)NCn2cc(-c3ccccc3)nn2)ccc1Cl", "OVCAR-4 ovarian", "> 100 µM"),
    ("c1ccc(CN2CCC(Nc3ccccc3)(c3nnnn3Cc3ccccc3)CC2)cc1", "OVCAR-4 ovarian", "> 100 µM"),
    ("CC(=O)O[C@]1(C)OC(=O)[C@@H](CC(C)C)N1[N+](=O)[O-]", "OVCAR-4 ovarian", "> 100 µM"),
    ("Cc1nc2ccc(NC(=O)CCNC(=O)CCCc3ccc(CC(C(=O)O)C(=O)O)cc3)cc2s1", "OVCAR-4 ovarian", "> 100 µM"),
]

# context switch: different molecule, same TGI
Task: Suppose we examine the molecule "Cc1nc(Nc2ccccn2)sc1C(=O)/C=C/c1ccc(Cl)cc1" ; what TGI value has been reported?
Result: > 100 µM

###

System: MDA-N
Test: NCI tumour cell line growth inhibition, 48 h
assay_metric: TGI

Examples from the recorded data:
# compound, TGI
rows = [
    ("O=C1NC(=O)C(C(CC(=O)c2ccc(Cl)cc2)c2ccc(Cl)cc2)C(=O)N1 (stereo unspecified)", "> 100 µM"),
    ("CCN(CC)C(=S)SS(=O)(=O)c1cccc(N)c1", "> 100 µM"),
    ("CN1CC2=C(NC(=S)NC2c2ccccc2)/C(=C/c2ccccc2)C1 (stereo unspecified)", "> 100 µM"),
]

Task: What value of TGI has been recorded for this entry: "CC(C)(C)CC(C)(C)c1cc(O)c(O)c(CN2CCCCC2)c1"
Result: 28.3 µM

Task: Which TGI value is on record for "Cc1c(C(=O)OCc2ccccc2)[n+](=O)c2cc(Cl)c(Cl)cc2n1[O-]" ?
Result: 40.7 µM

Task: So what does the record say about TGI for "Cc1ccccc1N=C(N)Nc1ccccc1C" ?
Result: > 100 µM

###

The compounds listed here are annotated with their GI50.
Tested on: HS 578T breast
Assay: NCI tumour cell line growth inhibition, 48 h

# compound, measurement_target, GI50
data = [
    ("COc1cc2c(cc1OC)C(=O)/C(=C/c1cc(-c3ccc4c(c3)OCO4)n[nH]1)C2", "HS 578T breast", "2610 nM"),
]

Task: What GI50 appears in the records for this compound with HS 578T breast? CC(C)=CCC(OC(=O)C=C(C)C)C1=CC(=O)c2c(O)ccc(O)c2C1=O (centres undefined)
Result: 14300 nM

Task: HS 578T breast / GI50 / "CCCCCC[C@H](C)Nc1nc2ccccc2c2occc12" : value?
Result: 12800 nM

Task: I'm curious: which GI50 was measured for "CCN(c1cc(-c2ccc(CN3CCOCC3)cc2)cc(C(=O)NCc2c(C)cc(C)[nH]c2=O)c1C)C1CCOCC1" tested on HS 578T breast?
Result: 22200 nM

###

Recorded TGI for the following compounds
Tested on: DLD-1 colon
Test: NCI tumour cell line growth inhibition, 48 h

Answered cases to consult:
# compound, TGI
rows = [
    ("CC(C)OP(=O)(OC(C)C)/C(N)=N/Nc1ccc([N+](=O)[O-])cc1", "> 100 µM"),
    ("C=CCO/N=C(\\OC(=O)c1ccc([N+](=O)[O-])cc1)c1ccccc1", "> 100 µM"),
    ("c1ccc2c(c1)oc1ccc3nsnc3c12", "> 100 µM"),
    ("COc1ccc(C(=O)C(CC2C(=O)NC(=O)NC2=O)c2ccc(OC)cc2)cc1 (stereo unspecified)", "> 100 µM"),
    ("CCOC(=O)N1CCc2cc(OC)c(OC)cc2/C1=C\\c1ccc(OC)c(OC)c1", "> 100 µM"),
]

Task: Short answer please: TGI, DLD-1 colon, entry CC(C)(C)C(=CS(=O)/N=C/c1ccccc1)C(C)(C)C (stereo unspecified)
Result: > 100 µM

Task: Find the measured TGI: item "CCOC(=O)CCn1ncc(Cl)c(Cl)c1=O" , target or system DLD-1 colon.
Result: 21.5 µM

###

Items are presented alongside their recorded GI50.
Test system: HCC-2998 colon
Assay: NCI tumour cell line growth inhibition, 48 h

Sample records with GI50:
# compound, measurement_target, obs_value
records = [
    ("Cn1cc(-c2ccc3nnc(Sc4ccc5ncccc5c4)n3n2)cn1", "HCC-2998 colon", "> 100 µM"),
    ("NCCOCCOCCNc1nc(-c2ccc(Cl)cc2)nc(N2CCN(c3ccccn3)CC2)n1", "HCC-2998 colon", "1.75 µM"),
    ("O=P1(S)OC[C@H]2O[C@@H]3[C@H](F)[C@@H]2OP(O)(=S)OC[C@H]2O[C@H]([C@H](F)[C@@H]2O1)n1cnc2c(ncnc21)NC/C=C/CNc1ncnc2c1ncn23 (some centres undefined)", "HCC-2998 colon", "> 100 µM"),
]

Now consider a different compound.
Task: Look at this compound and give its reported GI50. Cc1ccc(S(=O)(=O)c2nc(-c3ccccc3)oc2S(C)=O)cc1 (centres undefined)
Result: 16.4 µM

###

System: HCT-116 colon
Test: NCI tumour cell line growth inhibition, 48 h
Where a SMILES comes first, the peptide text is derived from it. [ ]: non-standard residue; d: D form. The star is where a group is joined. Bn2Val = CC(C)[C@@H](C(=O)*)N(Cc1ccccc1)Cc1ccccc1; NH(4-Cl-benzyl) = Clc1ccc(CN*)cc1; NMeV = CN[C@H](C(=O)O)C(C)C; dNMeA = CN[C@H](C)C(=O)O
assay_metric: log10 of TGI (log10 of the value in µM)
In our notation, the value equals log10 of TGI in µM.

Reference set, count: 3
# compound, log10 of TGI
measured = [
    ("NCCOCCOCCNc1nc(-c2ccc(Cl)cc2)nc(N2CCN(c3ccccn3)CC2)n1", 0.51),
    ("Cn1cc(C2=C(c3cn(C)c4ccc(Cl)cc34)C(=O)NC2=O)c2ccccc21", 0.87),
    ("CC(C)[C@H](NC(=O)[C@H](C(C)C)N(Cc1ccccc1)Cc1ccccc1)C(=O)N(C)[C@H](C(=O)N1CCC[C@H]1C(=O)N(C)[C@H](C)C(=O)NCc1ccc(Cl)cc1)C(C)C (Bn2Val-V[NMeV]P[dNMeA]-{NH(4-Cl-benzyl)})", 1.07),
]

Task: Could you share which log10 of TGI value was measured for "O=C1/C(=C/c2ccccc2)CN(C(=O)CCN2CCCC2)C/C1=C\c1ccccc1" ?
Result: -0.17

Task: Form field: reported log10 of TGI of "CCOC(=O)CCn1ncc(Cl)c(Cl)c1=O"
Result: 1.38

###

System: SK-MEL-28 melanoma
Experiment: NCI tumour cell line growth inhibition, 48 h
assay_metric: TGI

Solved cases below.
# compound, assay_metric, obs_value
measured = [
    ("NCCOCCOCCNc1nc(-c2ccc(Cl)cc2)nc(N2CCN(c3ccccn3)CC2)n1", "TGI", "3.23 µM"),
    ("O=C1CC(=O)n2cnc3cccc(c32)N1", "TGI", "> 100 µM"),
    ("C1CC2CN(CCCN3CCOCC3)C(C1)O2 (stereo not given)", "TGI", "> 100 µM"),
]

Task: Returns the measured TGI for the input compound. Input: "Cc1nc2c(n1C)C(=O)c1ccccc1C2=O"
Result: > 100 µM

Task: Form field: reported TGI of "COc1ccc2cc(CNCCCCCCNCc3ccc4cc(OC)ccc4c3)ccc2c1"
Result: 1.42 µM

Task: Could you share which TGI value was measured for "O=C(Oc1ccc(CO[N+](=O)[O-])cc1)c1ccccc1" ?
Result: 0.332 µM

Task: Any idea what its TGI is? The compound is "OCc1ccc(-c2cscc2-c2ccc(CO)o2)o1"
Result: > 100 µM

Task: Which TGI value is on record for CC1CCSC(N(C(=O)N(C)c2ccccc2)c2ccccc2)=N1 (stereo not given) ?
Result: > 100 µM

Task: Return reported TGI; argument: "Cc1c(C(=O)OCc2ccccc2)[n+](=O)c2cc(Cl)c(Cl)cc2n1[O-]"
Result: 64.8 µM

Task: I have this compound here, CN(Cc1cnc2nc(N)nc(N)c2n1)c1ccc(C(=O)NC(CO)CCCO)cc1 (stereo not given) , and I need its recorded TGI.
Result: > 100 µM

Task: GET /values?readout=TGI&item= "O=c1[nH]n(Cc2ccccc2)c2ccc([N+](=O)[O-])cc12"
Result: > 100 µM
